Data origin: PubChem BioAssay

test system: Human papillomavirus type 1a protein E7 (residues 44-93); test: HPV1a E7 fragment binders on microarrays, primary screen, biochemical, small-molecule microarray, residues 44-93, 635 nm fluorescence (AID 1108); details: small-molecule microarray binding, fluorescence 635 nm; higher = more signal;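 also: E7 fragment applied at 1 µg/mL in TBST for 1 h at 4 C; score combines spot fluorescence with its signal to noise ratio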
Each record gets a class by composite z-score: low band (below -0.09), middle band (-0.09 to below 0.5), high band (0.5 or more)

query: // return the class label for CCOC(=O)CCN1C(=O)[C@H]2[C@H]3[C@H](O)[C@H](O)CC(=NNC(=O)OCc4ccccc4)[C@@H]3CC[C@H]2C1=O
result: high band

query: // return the class label for COc1ccc(O[C@H]2C=C[C@@H](c3ccccc3)O[C@@H]2COC(=O)CCC(C)=NOC(C)CN2CCCc3nc(C)c(C)cc32)cc1 (stereo partly specified)
result: high band

query: // return the class label for CO[C@H]1COC(=O)CC=C[C@H](C)COC(=O)[C@@H](C)NC(=O)CC=C[C@@H]1C
result: low band

query: // return the class label for C[n+]1ccc(-c2ccc(CO)cc2)cc1
result: low band

query: // return the class label for COC(=O)[C@H](C)NC(=O)CCC1CC(OC(=O)NCc2ccc3c(c2)OCO3)CC2(CCCC(COC(=O)NCCc3ccccc3OC)O2)O1 (stereo partly specified)
result: high band

query: // return the class label for C[C@H]1CC[C@H]2C(=O)O[C@H](COc3ccc(C(C)(C)C)cc3)CN2[C@@H]1c1ccc(Br)cc1
result: middle band

query: // return the class label for O=c1n(Cc2cc3c(cc2Cl)OCO3)c(=O)n2n1CC[C@@H]1C(=NOCc3ccccc3)[C@H]3O[C@H]3[C@@H](O)[C@@H]12
result: middle band

query: // return the class label for CCOC(=O)NN=C1C[C@@H](O)[C@@H](O)[C@@H]2[C@@H]3C(=O)N(Cc4ccc5c(c4)OCO5)C(=O)[C@@H]3CC[C@H]12
result: high band

query: // return the class label for CC(=O)Nc1ccc([C@@H]2N[C@H](C(=O)O)CC[C@H]2C)cc1
result: low band

query: // return the class label for CC(C)CON=C1C[C@@H](O)[C@@H](O)[C@@H]2[C@@H]3C(=O)N(C4CCCCC4)C(=O)[C@@H]3CC[C@H]12
result: high band

query: // return the class label for C[C@@H]1CC[C@H]2C(=O)O[C@@H](COc3ccc(C(C)(C)C)cc3)CN2[C@@H]1c1ccc(Br)cc1
result: low band

query: // return the class label for CCOC(=O)CCN1C(=O)[C@H]2[C@H]3[C@H](O)[C@H](O)CC(=NOCC(C)C)[C@H]3CC[C@H]2C1=O
result: low band
